Assay: Human liver microsome stability assay
Format: in vitro ADME
Conditions: both sexes, human, microsomes, pH 7.4
List of half-life at 0.5 μM values.
Write the value in min as a bare number.

Example cases with answers are listed next.
input: # get_value(readout='half-life at 0.5 μM', item= Cn1cc(-c2cc(S(C)(=O)=O)ccc2Oc2ccc(F)cc2F)c2cc(CNc3nccs3)[nH]c2c1=O )
output: 7

input: Any idea what its half-life at 0.5 μM is? The molecule is Cn1cc(-c2cc(S(=O)(=O)N3CCc4ccccc43)ccc2OCC2CC2)c2cc[nH]c2c1=O
output: 1

input: Look up half-life at 0.5 μM: COc1ccccc1Oc1ccc(S(C)(=O)=O)cc1-c1cn(C)c(=O)c2[nH]ccc12
output: 27

Note: attention shifts to another entry.
input: State the recorded half-life at 0.5 μM for this entry: Cn1cc(-c2cc(S(C)(=O)=O)ccc2Oc2ccc(F)cc2F)c2cc(CN3CCOCC3)[nH]c2c1=O
output: 17

* * *

Experiment: Human liver microsome stability assay
Type: in vitro ADME
Conditions: both sexes, human, microsomes, pH 7.4
# reported half-life at 0.5 μM; entries follow
The figure you give is taken to be in h; do not add the unit.

input: Return reported half-life at 0.5 μM; argument: Cn1cc(-c2cc(C(=O)N3CCN(C(=O)N4CCCC4)CC3)ccc2Oc2ccc(F)cc2F)c2cc[nH]c2c1=O
output: 0.233

---
input: // lookup half-life at 0.5 μM for Cn1cc(-c2cc(C(=O)NCCc3c[nH]c4ccccc34)ccc2Oc2ccc(F)cc2F)c2cc[nH]c2c1=O
output: 0.0667

input: Value lookup for half-life at 0.5 μM; key = CN1CCC[C@H]1COc1ccc(S(C)(=O)=O)cc1-c1cn(C)c(=O)c2[nH]ccc12
output: 1.08

input: Look at this molecule and give its reported half-life at 0.5 μM. Cn1cc(-c2cc(S(C)(=O)=O)ccc2Oc2cccc3nsnc23)c2cc[nH]c2c1=O
output: 0.25

input: Given CCNC(=O)c1ccc(Oc2ccccc2)c(-c2cn(C)c(=O)c3[nH]ccc23)c1 , state its recorded half-life at 0.5 μM.
output: 1.1

input: Would you kindly share the measured half-life at 0.5 μM for Cn1cc(-c2cc(S(=O)(=O)N3CCc4ccccc43)ccc2Oc2ccc(F)cc2F)c2cc[nH]c2c1=O ?
output: 0.0333

* * *

Experiment: Rat liver microsome stability assay
Format: in vitro ADME
Conditions: rat liver microsomes (male Sprague-Dawley), 0.5 μM test compound, 0.25 mg/mL microsomal protein, pH 7.4, 37° C.; read-out: Stability in rat liver microsomes (t1/2 in minutes)
measurementLabel: half-life at 0.5 μM (h)
Give the number; h is assumed, so skip it.

Consider the following illustrative entries.
input: Look at this compound and give its reported half-life at 0.5 μM. Cn1cc(-c2cc(C(N)=O)ccc2Oc2ccc(F)cc2F)c2cc[nH]c2c1=O
output: 1.47

input: I am curious: what half-life at 0.5 μM value has been reported for Cn1cc(-c2cc(S(C)(=O)=O)ccc2OCC2CCOC2)c2cc[nH]c2c1=O (stereo not drawn) ?
output: 1.68

Query compound follows.
input: Any idea what half-life at 0.5 μM was measured for Cn1cc(-c2cc(-c3ccc(N)nc3)ccc2OCC2CC2)c2cc[nH]c2c1=O ?
output: 0.0833
